Source listed as patent US20140107113A1.

Listed here are compounds together with their documented pIC50.
target: human TRPA1 receptor (Homo sapiens, UniProt O75762); assay: Inhibition of AITC induced cellular uptake of radioactive calcium in human TRPA1 expressing CHO cells; conditions: read-out: hTRPA1 IC50 values
Sequence (O75762 whole entry): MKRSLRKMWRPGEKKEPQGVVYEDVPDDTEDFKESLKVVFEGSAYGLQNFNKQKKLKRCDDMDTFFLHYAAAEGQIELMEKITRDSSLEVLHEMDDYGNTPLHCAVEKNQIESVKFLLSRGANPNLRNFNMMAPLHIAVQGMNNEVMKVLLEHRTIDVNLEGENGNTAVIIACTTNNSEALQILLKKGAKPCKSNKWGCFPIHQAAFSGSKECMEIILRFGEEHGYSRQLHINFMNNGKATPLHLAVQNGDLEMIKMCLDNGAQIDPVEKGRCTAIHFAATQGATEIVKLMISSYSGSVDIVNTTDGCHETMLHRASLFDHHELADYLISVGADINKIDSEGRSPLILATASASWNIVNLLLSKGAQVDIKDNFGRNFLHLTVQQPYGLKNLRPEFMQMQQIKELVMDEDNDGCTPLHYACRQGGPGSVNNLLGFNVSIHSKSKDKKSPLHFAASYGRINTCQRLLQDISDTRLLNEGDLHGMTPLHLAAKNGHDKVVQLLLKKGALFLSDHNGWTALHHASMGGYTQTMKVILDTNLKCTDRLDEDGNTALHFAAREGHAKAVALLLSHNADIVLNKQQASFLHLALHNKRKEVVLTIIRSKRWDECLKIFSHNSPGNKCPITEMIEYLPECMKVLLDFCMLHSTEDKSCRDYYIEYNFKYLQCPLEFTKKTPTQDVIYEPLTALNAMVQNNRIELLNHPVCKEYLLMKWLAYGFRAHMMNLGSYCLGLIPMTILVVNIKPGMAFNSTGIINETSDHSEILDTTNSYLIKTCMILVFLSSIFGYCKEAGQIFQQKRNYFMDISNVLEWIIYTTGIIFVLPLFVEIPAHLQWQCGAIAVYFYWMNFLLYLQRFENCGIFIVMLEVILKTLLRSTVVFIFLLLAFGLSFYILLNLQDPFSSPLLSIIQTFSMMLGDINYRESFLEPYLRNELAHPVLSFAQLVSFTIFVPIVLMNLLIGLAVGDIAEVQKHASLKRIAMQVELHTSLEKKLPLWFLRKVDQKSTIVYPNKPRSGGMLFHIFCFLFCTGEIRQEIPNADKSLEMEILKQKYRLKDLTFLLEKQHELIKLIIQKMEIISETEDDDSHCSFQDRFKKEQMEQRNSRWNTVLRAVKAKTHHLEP
// field semantics: pIC50 = negative decimal log of concentration (mol/L)

Record Cn1c(=O)c2c(ncn2CC(=O)Nc2nc(-c3ccc(Br)cc3)cs2)n(C)c1=O : what is its pIC50 with human TRPA1 receptor (Homo sapiens, UniProt O75762)? 6.35

# query: pIC50 | item Cn1c(=O)c2c(cnn2CC(=O)Nc2nc(-c3cc(Cl)c(OCC(C)(C)C)c(Cl)c3)cs2)n(C)c1=O | system: human TRPA1 receptor (Homo sapiens, UniProt O75762) 8.08

# value lookup — system human TRPA1 receptor (Homo sapiens, UniProt O75762), readout pIC50, item Cc1oc2c(c1CC(=O)Nc1nc(-c3ccc(OC(F)(F)F)c(Cl)c3)cs1)c(=O)n(C)c(=O)n2C 8.07

Identify the measured pIC50 of CC(C)Cc1ccc(-c2csc(NC(=O)Cc3cccc4c3c(=O)n(C)c(=O)n4C)n2)cc1 for human TRPA1 receptor (Homo sapiens, UniProt O75762). 7.36

I'm curious: which pIC50 was measured for Cn1c(=O)c2c(CC(=O)Nc3nc(-c4ccc(OC(F)(F)F)c(F)c4)cs3)nccc2n(C)c1=O tested on human TRPA1 receptor (Homo sapiens, UniProt O75762)? 7.94

For the record Cn1c(=O)c2c(CC(=O)Nc3nc(-c4ccc(C(F)(F)F)c(F)c4)cs3)csc2n(C)c1=O , what value of pIC50 is listed for human TRPA1 receptor (Homo sapiens, UniProt O75762)? 8.32

Param readout= pIC50; system= human TRPA1 receptor (Homo sapiens, UniProt O75762); entry= Cn1c(=O)c2c(CC(=O)Nc3ccn(-c4cccc(C(F)(F)F)c4)n3)cccc2n(C)c1=O ; returns value. 7.23

----------
Below, each entry is listed alongside its reported pIC50.
Molecular target: human TRPA1 receptor (Homo sapiens)
Assay: Inhibition of AITC induced cellular uptake of radioactive calcium in human TRPA1 expressing CHO cells
Conditions: read-out: hTRPA1 IC50 values
Protocol: The human IC50 values were measured by the following method: The inhibition of TRPA1 receptor activation is measured as inhibition of allylisothiocyanate (AITC) induced cellular uptake of radioactive calcium. Test compound solution is prepared in a suitable solvent. Human TRPA1 expressing CHO cells are grown in suitable medium. […] Cells are washed, lysed and the radioactivity in the lysate is measured in Packard Top count after addition of liquid scintillant. […]
Worth noting: pIC50 values are minus log10 of concentrations stated in mol/L.

Consider the following illustrative entries.
Cn1c(=O)c2c(ccn2CC(=O)Nc2nc(-c3cc(Cl)c(OCCC(F)(F)F)c(Cl)c3)cs2)n(C)c1=O; 7.74
Cc1oc2c(c1CC(=O)N=c1scc(-c3ccc(OC(F)(F)F)c(Cl)c3)n1COC(=O)CN)c(=O)n(C)c(=O)n2C; 7.27
Cc1oc2c(c1CC(=O)/N=c1\scc(-c3ccc(OC(F)(F)F)c(Cl)c3)n1COC(=O)[C@@H](N)C(C)C)c(=O)n(C)c(=O)n2C; 7.05
Cn1c(=O)c2c(CC(=O)Nc3nc(-c4ccc(F)c(C(F)(F)F)c4F)cs3)csc2n(C)c1=O; 8.60
Cn1c(=O)c2c(ccn2CC(=O)Nc2nc(-c3cc(F)c(OCC(F)(F)F)c(F)c3)cs2)n(C)c1=O; 7.91

Query: pIC50; subject: Cn1c(=O)c2c(CC(=O)Nc3nc(-c4ccc(C(F)(F)F)c(F)c4F)cs3)nsc2n(C)c1=O 8.27

State the recorded pIC50 for this entry: Cc1oc2c(c1CC(=O)Nc1nc(-c3ccc(C(F)(F)F)c(F)c3)cs1)c(=O)n(C)c(=O)n2C 8.18
